# credit: ChEMBL document CHEMBL3860043

- targetOrSystem: Free fatty acid receptor 4 (Homo sapiens)
- Sequence (Q5NUL3 whole entry): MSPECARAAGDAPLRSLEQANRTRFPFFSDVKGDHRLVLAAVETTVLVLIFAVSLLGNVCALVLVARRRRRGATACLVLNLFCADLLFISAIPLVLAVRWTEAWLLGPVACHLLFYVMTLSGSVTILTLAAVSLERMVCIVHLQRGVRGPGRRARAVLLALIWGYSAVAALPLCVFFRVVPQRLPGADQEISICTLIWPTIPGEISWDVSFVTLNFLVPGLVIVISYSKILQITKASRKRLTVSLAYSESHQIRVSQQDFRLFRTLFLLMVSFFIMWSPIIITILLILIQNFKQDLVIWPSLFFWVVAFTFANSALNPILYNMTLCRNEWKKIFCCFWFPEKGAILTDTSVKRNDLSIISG
- experimentalProtocol: Agonist activity at C-terminal YFP-tagged human FFA4 expressed in HEK293 cells in presence of coelentrazine h by BRET based beta-arrestin-2 interaction assay
- Format: cell-based
pEC50: −log10 of the molar value.
observationType: pEC50

Query pEC50 for O=S1(=O)c2ccccc2CN1c1cc(F)cc(Oc2ccccc2)c1
> 5.00

###

So I've got a bunch of molecules here, and I need their Emax values.
- targetOrSystem: Free fatty acid receptor 4 (Homo sapiens) (UniProt Q5NUL3)
- Sequence (Q5NUL3 whole entry): as above
- experimentalProtocol: Agonist activity at human FFA4 expressed in human Flp-In T-REx293 cells by Fura2-AM dye based calcium mobilization assay relative to 100 uM […]
- Format: functional, cell-based
// units = %; emit number, no label

Answer briefly: Emax recorded on Free fatty acid receptor 4 (Homo sapiens) (UniProt Q5NUL3) for N#Cc1ccc(Oc2cc(F)cc(N3Cc4ccccc4S3(=O)=O)c2)cc1
29

Answer briefly: Emax recorded on Free fatty acid receptor 4 (Homo sapiens) (UniProt Q5NUL3) for Cc1cccc(Oc2cc(F)cc(N3Cc4ccccc4S3(=O)=O)c2)c1
14

Answer briefly: Emax recorded on Free fatty acid receptor 4 (Homo sapiens) (UniProt Q5NUL3) for O=S1(=O)c2ccccc2CN1c1cc(F)cc(Oc2ccccc2)c1
78

Answer briefly: Emax recorded on Free fatty acid receptor 4 (Homo sapiens) (UniProt Q5NUL3) for O=S1(=O)c2ccccc2CN1c1cc(F)cc(Oc2ccncc2)c1
120

Answer briefly: Emax recorded on Free fatty acid receptor 4 (Homo sapiens) (UniProt Q5NUL3) for O=S1(=O)c2ccccc2CN1c1cccc(Oc2ccccn2)c1
93

Answer briefly: Emax recorded on Free fatty acid receptor 4 (Homo sapiens) (UniProt Q5NUL3) for O=S1(=O)c2ccccc2CN1c1cccc(Oc2ccccc2)c1
105

Answer briefly: Emax recorded on Free fatty acid receptor 4 (Homo sapiens) (UniProt Q5NUL3) for O=S1(=O)c2ccccc2CN1c1cc(Cl)cc(Oc2ccccn2)c1
78

Answer briefly: Emax recorded on Free fatty acid receptor 4 (Homo sapiens) (UniProt Q5NUL3) for Cc1ccc(Oc2cc(F)cc(N3Cc4ccccc4S3(=O)=O)c2)cc1
38

Answer briefly: Emax recorded on Free fatty acid receptor 4 (Homo sapiens) (UniProt Q5NUL3) for O=S1(=O)c2ccccc2CN1c1cc(F)cc(Oc2ccccn2)c1
130

Answer briefly: Emax recorded on Free fatty acid receptor 4 (Homo sapiens) (UniProt Q5NUL3) for O=S1(=O)c2ccccc2CN1c1cc(F)cc(Oc2cccnc2)c1
115
